// values below are reported %Inh
Tested on: MAP3K15
Conditions: concentration: 1 μM, replicates: in singlicate; n = 1;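 note: KINOMEscan kinase panel screen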
Give the value, in units of %, as a plain number.

| SAMPLE SMILES | UNIT ABBREV | %Inh |
| --- | --- | --- |
| COc1cc2c(cc1OCCN1CCN(C)CC1)ncc1c3ccc(C#N)cc3[nH]c21 | % | 61 |
| CN(C(=O)c1ccc(-c2cc(-c3c[nH]nc3-c3ccccn3)ccn2)cc1)C1CCOCC1 | % | 0 |
| COc1cc2c(cc1OC[C@@H](O)CO)ncc1c3ccc(C#N)cc3[nH]c21 | % | 42 |

API: the following record is the query input.
Enquiry: Using the record for `Cc1c2ccc(N(C)c3ccnc(Nc4cccc(S(N)(=O)=O)c4)n3)cc2nn1Cc1ccccc1.Cl.Cl` , report its %Inh.
Return: 0

---

Tested on: MRCKA
Conditions: concentration: 1 μM, replicates: in singlicate; n = 1
// values below are reported %Inh
Give the value, in units of %, as a plain number.

Worked examples follow.
| MOLECULE | %Inh [%] |
| --- | --- |
| Cc1c(Cn2c(C)nn3c(=O)cc(N4CCOC(C)C4)nc23)cccc1C(F)(F)F (stereo not shown) [GSK2344444] | 0 |
| [2H]C([2H])(c1cccc(C(F)(F)F)c1C)n1ccn2c(=O)nc(N3CCOCC3)cc12 [GSK2336394] | 23 |
| CCn1cnc2c(N)ncnc21 [GW345098] | 0 |

API: the following record is the query input.
Enquiry: Using the record for NS(=O)(=O)c1cccc(-c2ccc3nccc(-c4cccc(S(N)(=O)=O)c4)c3c2)c1 [GW867253] , report its %Inh.
Return: 3

---

// values below are reported %Inh
Test system: HIPK1
Conditions: concentration: 1 μM, replicates: in singlicate; n = 1
Give the value, in units of %, as a plain number.

Worked examples follow.
| MOLECULE | UNIT ABBREV | %Inh |
| --- | --- | --- |
| Nc1nccc(-c2c(-c3ccc(F)cc3)ncn2C2CCN(CC(F)(F)F)CC2)n1 [SB-236560] | % | 27 |
| NS(=O)(=O)c1cccc(-c2ccc3nccc(-c4cccc(S(N)(=O)=O)c4)c3c2)c1 [GW867253] | % | 37 |
| COc1cc2c(cc1OCCN1CCN(C)CC1)ncc1c3ccc(C#N)cc3[nH]c21 | % | 97.6 |

Enquiry: Using the record for Cc1nnc(-c2ccc3ncc(-c4ccc(S(C)=O)cc4)n3c2)o1 (stereo not drawn) , report its %Inh.
Return: 21

Enquiry: Using the record for O=c1cc(N2CCOCC2)nc2n(Cc3cccc(C(F)(F)F)c3)ccn12 [GSK2297543] , report its %Inh.
Return: 18

Enquiry: Using the record for `Cc1cccc(-c2nc(-c3ccc(S(C)(=O)=O)cc3)sc2-c2ccncc2)c1` , report its %Inh.
Return: 8

Enquiry: Using the record for CC(=O)Nc1ccc(COc2ccc(Nc3ccnc4cc(-c5ccccn5)ccc34)cc2)cc1.Cl [GW440148] , report its %Inh.
Return: 0

Enquiry: Using the record for Cc1c(Cn2c(C)nn3c(=O)cc(N4CCOC(C)C4)nc23)cccc1C(F)(F)F (stereo not drawn) [GSK2344444] , report its %Inh.
Return: 0

Enquiry: Using the record for Fc1ccc(-c2nn3c(OCC(F)(F)F)cccc3c2-c2ccncc2)cc1 [GW514784] , report its %Inh.
Return: 0

---

Tested on: PAK1
Details: concentration: 1 μM, replicates: in singlicate; n = 1
READOUT LABEL: %Inh (%)
Give the value, in units of %, as a plain number.

Worked examples follow.
| SAMPLE SMILES | UNIT ABBREV | %Inh |
| --- | --- | --- |
| Fc1ccc(-c2ncn(CCCN3CCOCC3)c2-c2cccnc2)cc1 | % | 15 |
| COCCNC(=O)c1ccc(-c2cc(C(=O)NC3CC3)cc(F)c2C)cc1 | % | 20 |
| Cc1ccc(C(=O)NCC(N)=O)cc1-n1c(C)cc(OCc2ccc(F)cc2F)c(Br)c1=O | % | 16 |
| c1ccc(-c2n[nH]cc2-c2ccnc3ccccc23)nc1 | % | 16 |

Enquiry: Using the record for `COc1ccc(S(=O)(=O)NC2CCN(c3cc(C)nc(Nc4cccc(C#N)c4)n3)CC2)cc1.O=C(O)C(F)(F)F` , report its %Inh.
Return: 3

---

Test system: EPHA7
Settings: concentration: 1 μM, replicates: in singlicate; n = 1
READOUT LABEL: %Inh (%)
Give the value, in units of %, as a plain number.

| SAMPLE SMILES | %Inh [%] |
| --- | --- |
| CN1c2ccc(NCc3ccc(F)cc3)cc2-c2c(cnn2C)S1(=O)=O | 0 |
| CNc1ncnc2[nH]ncc12 | 0 |
| Cc1c2ccc(N(C)c3ccnc(Nc4cccc(S(N)(=O)=O)c4)n3)cc2nn1Cc1ccccc1.Cl.Cl | 0 |
| O=C(Nc1n[nH]c2cc(-c3cccc(F)c3)ccc12)C1CC1 | 14 |

API: the following record is the query input.
Enquiry: Using the record for `Cn1ccc2ncnc(Oc3ccc(NC(=O)Nc4ccncc4)c(Cl)c3)c21` , report its %Inh.
Return: 0

---

Tested on: DYRK1B
Conditions: concentration: 1 μM, replicates: in singlicate; n = 1
// values below are reported %Inh
Give the value, in units of %, as a plain number.

Worked examples follow.
| MOLECULE | UNIT ABBREV | %Inh |
| --- | --- | --- |
| c1ccc(-c2cc(-c3c[nH]nc3-c3ccccn3)ccn2)cc1 [GW576604] | % | 0 |
| COc1cc(Nc2nccc(N3CCC(NC(=O)c4cccc(NC(C)=O)c4)C3)n2)cc(OC)c1OC (stereo not drawn) [GSK1379754] | % | 28 |
| NS(=O)(=O)c1cccc(-c2ccc3nccc(-c4cccc(S(N)(=O)=O)c4)c3c2)c1 [GW867253] | % | 0 |
| O=C(c1ccc(-c2cc(-c3c[nH]nc3-c3ccccn3)ccn2)cc1)N1CCOCC1 [GW812171] | % | 0 |
| Cn1cc(-c2ccc3c(c2)CCN3C(=O)Cc2ccccc2Cl)c2c(N)ncnc21 [GSK2608885] | % | 12 |

Enquiry: Using the record for `Cc1ccc(C(=O)NCC(N)=O)cc1-n1c(C)cc(OCc2ccc(F)cc2F)c(Br)c1=O` , report its %Inh.
Return: 0

Enquiry: Using the record for O=C(Nc1n[nH]c2cc(-c3cccc(F)c3)ccc12)C1CC1 [SB-735464] , report its %Inh.
Return: 0

Enquiry: Using the record for CN(C1=C(c2ccccc2)C(=O)NC1=O)c1ccccc1 [SB-334860] , report its %Inh.
Return: 9

Enquiry: Using the record for Cc1nnc(-c2ccc3occ(-c4ccc(C(C)O)cc4)c3c2)o1 (stereo not drawn) , report its %Inh.
Return: 11

Enquiry: Using the record for Cc1cccc(-c2nc(Nc3ccc4ncsc4c3)c3ccccc3n2)n1 [GW867588] , report its %Inh.
Return: 0

Enquiry: Using the record for `CN1c2ccc(CNc3ccc(F)cc3)cc2-c2c(cnn2C)S1(=O)=O` , report its %Inh.
Return: 0

Enquiry: Using the record for CCCCCc1nc2c(N)ncnc2n1CCCCC [SKF-97255] , report its %Inh.
Return: 0

---

// values below are reported %Inh
Tested on: FGFR3
Conditions: concentration: 1 μM, replicates: in singlicate; n = 1
Give the value, in units of %, as a plain number.

Worked examples follow.
| SAMPLE SMILES | SYSTEM NAME | RECORDED RESULT |
| --- | --- | --- |
| Fc1ccc(-c2nn3c(OCC(F)(F)F)cccc3c2-c2ccncc2)cc1 | FGFR3 | 0 |
| CC(C)Oc1ccc2c(-c3ccnc(Nc4ccc(N5CCN(C)CC5)cc4)n3)cnn2n1 | FGFR3 | 12 |
| CCn1cnc2c(N)ncnc21 | FGFR3 | 0 |
| Cl.Cl.Cl.Fc1ccc(-c2ncn(C3CCNCC3)c2-c2ccnc(Nc3ccccc3)n2)cc1 | FGFR3 | 0 |
| Cn1cc(-c2ccc3c(c2)CCN3C(=O)Cc2ccccc2Cl)c2c(N)ncnc21 | FGFR3 | 43 |

Enquiry: Using the record for `N#Cc1c(N2CCOCC2)sc(-c2ccn[nH]2)c1-c1ccc(Cl)cc1` , report its %Inh.
Return: 0

Enquiry: Using the record for `COc1ccc(Nc2ncc(C#N)c(Nc3ccccc3C(N)=O)n2)cc1N1CCN(C)CC1.Cl` , report its %Inh.
Return: 99.9

Enquiry: Using the record for `O=c1cc(N2CCOCC2)nc2n(Cc3cccc(F)c3)ccn12` , report its %Inh.
Return: 14

Enquiry: Using the record for `CN1c2ccc(NCc3ccc(F)cc3)cc2-c2c(cnn2C)S1(=O)=O` , report its %Inh.
Return: 0
